- Experimental Target: Renin (Homo sapiens, UniProt P00797)
- Sequence (P00797 whole entry): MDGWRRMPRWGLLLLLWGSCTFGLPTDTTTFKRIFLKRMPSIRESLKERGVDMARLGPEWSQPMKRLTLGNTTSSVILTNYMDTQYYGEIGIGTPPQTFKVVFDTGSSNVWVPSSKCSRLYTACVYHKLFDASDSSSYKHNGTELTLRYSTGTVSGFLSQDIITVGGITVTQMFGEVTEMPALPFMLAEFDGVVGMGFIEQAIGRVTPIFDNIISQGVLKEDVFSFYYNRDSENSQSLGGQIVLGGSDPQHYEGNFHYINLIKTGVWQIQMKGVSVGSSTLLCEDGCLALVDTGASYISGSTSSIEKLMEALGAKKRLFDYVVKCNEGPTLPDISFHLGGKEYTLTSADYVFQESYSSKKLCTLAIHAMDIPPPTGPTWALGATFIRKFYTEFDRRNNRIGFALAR
- Assay Protocol: Inhibition of human plasma renin
Non-standard residues stand in square brackets, D forms with d. Residues, ends and D or L forms follow the SMILES beside them. ξ: configuration not given here. *: point of attachment. Sta = CC(C)C[C@H](N)[C@@H](O)CC(=O)O; NHCH2(2-pyridyl) = c1ccc(CN*)nc1; ξαMeF = CC(N)(Cc1ccccc1)C(=O)O; Boc = CC(C)(C)OC(=O)*
Measurement Label: pIC50
pIC50 is defined as minus the log10 of a concentration measured in mol/L.

Entry CC[C@H](C)[C@H](NC(=O)C[C@H](O)[C@H](CC(C)C)NC(=O)[C@H](Cc1ccccc1)NC(=O)[C@H](Cc1ccccc1)NC(=O)OC(C)(C)C)C(=O)NCc1ccccn1 (Boc-FF[Sta]I-{NHCH2(2-pyridyl)}) : reported pIC50 = ?
7.62

pIC50 for CCC(C)C(NC(=O)CC(O)C(CC(C)C)NC(=O)C(Cc1cnc[nH]1)N(C)C(=O)C(Cc1ccccc1)NC(=O)OC(C)(C)C)C(=O)NCc1ccccn1 (stereo not drawn) ?
6.92

Which pIC50 is reported for this compound? CC[C@H](C)[C@H](NC(=O)C[C@H](O)[C@H](CC(C)C)NC(=O)[C@H](Cc1ccccc1)NC(=O)C(C)(Cc1ccccc1)NC(=O)OC(C)(C)C)C(=O)NCc1ccccn1 (stereo partly drawn) (Boc-[ξαMeF]F[Sta]I-{NHCH2(2-pyridyl)})
5.17

----------
Entries annotated with measured pIC50
- Experimental Target: Renin (Homo sapiens, UniProt P00797)
- Assay Protocol: Inhibition of human plasma renin
Non-standard residues stand in square brackets, D forms with d. Residues, ends and D or L forms follow the SMILES beside them. *: point of attachment. Sta = CC(C)C[C@H](N)[C@@H](O)CC(=O)O; NHCH2(2-pyridyl) = c1ccc(CN*)nc1; NMeF = CN[C@@H](Cc1ccccc1)C(=O)O; Boc = CC(C)(C)OC(=O)*
Scale note: pIC50 = -log10(concentration in M).

// worked examples, pIC50 included
>>> data_value("CC[C@H](C)[C@H](NC(=O)[C@@H](C[C@H](O)[C@H](CC(C)C)NC(=O)[C@H](Cc1c[nH]cn1)N(C)C(=O)[C@H](Cc1ccccc1)NC(=O)OC(C)(C)C)C(C)C)C(=O)NCc1ccccn1")
9.19
>>> data_value("CC[C@H](C)[C@H](NC(=O)C[C@H](O)[C@H](CC(C)C)NC(=O)[C@H](Cc1ccccc1)NC(=O)[C@H](Cc1ccccc1)N(C)C(=O)OC(C)(C)C)C(=O)NCc1ccccn1 (Boc-[NMeF]F[Sta]I-{NHCH2(2-pyridyl)})")
6.47

Given CC[C@H](C)[C@H](NC(=O)C[C@H](O)[C@H](CC(C)C)NC(=O)[C@H](Cc1ccccc1)N(C)C(=O)[C@H](Cc1ccccc1)NC(=O)OC(C)(C)C)C(=O)NCc1ccccn1 (Boc-F[NMeF][Sta]I-{NHCH2(2-pyridyl)}) , state its recorded pIC50.
7.00
